target: Voltage-gated inwardly rectifying potassium channel KCNH2 (Homo sapiens); assay: Inhibition of human ERG
Sequence (Q12809 whole entry): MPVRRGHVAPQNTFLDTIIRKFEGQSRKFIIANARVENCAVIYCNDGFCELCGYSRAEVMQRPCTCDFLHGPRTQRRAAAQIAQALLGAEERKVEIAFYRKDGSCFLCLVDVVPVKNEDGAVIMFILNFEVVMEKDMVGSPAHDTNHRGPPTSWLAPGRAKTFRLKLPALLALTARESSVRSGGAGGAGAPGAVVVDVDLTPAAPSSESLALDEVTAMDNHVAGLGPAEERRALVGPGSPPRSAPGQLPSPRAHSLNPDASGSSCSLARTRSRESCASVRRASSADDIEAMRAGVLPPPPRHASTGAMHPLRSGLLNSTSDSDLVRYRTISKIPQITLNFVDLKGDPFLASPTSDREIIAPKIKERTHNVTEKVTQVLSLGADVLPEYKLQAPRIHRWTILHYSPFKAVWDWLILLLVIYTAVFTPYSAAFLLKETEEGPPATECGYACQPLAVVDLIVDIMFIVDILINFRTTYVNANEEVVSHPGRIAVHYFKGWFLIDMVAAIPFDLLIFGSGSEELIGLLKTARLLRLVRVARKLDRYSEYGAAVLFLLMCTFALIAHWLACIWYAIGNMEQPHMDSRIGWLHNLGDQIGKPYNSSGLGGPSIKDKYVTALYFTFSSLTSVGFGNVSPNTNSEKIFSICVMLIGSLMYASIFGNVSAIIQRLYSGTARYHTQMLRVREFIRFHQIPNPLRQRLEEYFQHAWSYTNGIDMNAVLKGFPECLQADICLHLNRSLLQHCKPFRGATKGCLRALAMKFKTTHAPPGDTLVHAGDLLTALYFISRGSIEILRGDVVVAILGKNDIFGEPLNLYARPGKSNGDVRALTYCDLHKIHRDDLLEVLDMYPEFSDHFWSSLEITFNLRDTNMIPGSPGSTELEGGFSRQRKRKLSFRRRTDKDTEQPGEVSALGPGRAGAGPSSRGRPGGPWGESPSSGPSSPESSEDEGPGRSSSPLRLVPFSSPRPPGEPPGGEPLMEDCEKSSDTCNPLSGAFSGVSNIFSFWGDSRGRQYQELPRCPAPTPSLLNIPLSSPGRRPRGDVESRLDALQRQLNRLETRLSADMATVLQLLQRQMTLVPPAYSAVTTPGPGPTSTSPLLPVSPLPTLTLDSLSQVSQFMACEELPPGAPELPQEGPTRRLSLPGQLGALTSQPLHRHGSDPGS
readout_label: IC50 (µM)
Output spec: scalar in µM, unitless text.

Asked: May I ask what IC50 has been recorded for `CN(c1cnn(-c2ccnc3[nH]c(-c4cccc5c4ccn5C)nc23)c1)[C@@H]1CCOC[C@@H]1N` ?
Given back: 9.2

Asked: Can you check `Cc1nn(-c2ccnc3[nH]c(-c4cccc5c4ccn5C)nc23)cc1CN(C)C` next?
Given back: 2.6

Asked: Can you check `CN(C)Cc1cc(-c2ccnc3[nH]c(-c4cccc5c4ccn5C)nc23)nn1C` next?
Given back: 13

====

test: Solubility of compound; assay type: physicochemical
readout_label: solubility (µM)
Output spec: scalar in µM, unitless text.

Asked: May I ask what solubility has been recorded for `Cc1nn(-c2ccnc3[nH]c(-c4cccc5c4ccn5C)nc23)cc1CN(C)C` ?
Given back: 89

====

Give measured CLint for each item. Keep answers brief.
assay: Intrinsic clearance in human liver microsome; assay type: ADME; conditions: microsomes
Output spec: scalar in µL/min/mg, unitless text.

Asked: May I ask what CLint has been recorded for `Cc1nn(-c2ccnc3[nH]c(-c4cccc5c4ccn5C)nc23)cc1CN(C)C` ?
Given back: 37

Asked: Can you check `Cc1nn(-c2ccnc3[nH]c(-c4cccc5c4ccn5C)nc23)cc1CN1CC[C@@H](O)C1` next?
Given back: 63

====

molecular target: Voltage-gated inwardly rectifying potassium channel KCNH2 (Homo sapiens)
Give measured pIC50 for each item. Keep answers brief.
Hey, just a heads up that pIC50 is the negative log base 10 of the concentration in molar.

Asked: Lab note: need pIC50 with Voltage-gated inwardly rectifying potassium channel KCNH2 (Homo sapiens) for entry `Cc1nn(-c2ccnc3[nH]c(-c4cccc5c4ccn5C)nc23)cc1CN1CC[C@H](O)C1` , please look it up.
Given back: 4.57

Asked: Can you check `Cc1nn(-c2ccnc3[nH]c(-c4cccc5c4ccn5C)nc23)cc1CN1CC[C@@H](O)C1` next?
Given back: 4.51

====

Give measured hepatocyte CLint for each item. Keep answers brief.
assay: Intrinsic clearance in rat hepatocytes assessed per 10^6 cells; assay type: ADME, cell-based, Hepatocyte; details: read-out: CLH
Output spec: scalar in µL/min/1e6 cells, unitless text.

Asked: May I ask what hepatocyte CLint has been recorded for `Cc1nn(-c2ccnc3[nH]c(-c4cccc5c4ccn5C)nc23)cc1CN(C)C` ?
Given back: 127

Asked: Can you check `Cc1nn(-c2ccnc3[nH]c(-c4cccc5c4ccn5C)nc23)cc1CN1CC[C@@H](O)C1` next?
Given back: 40

====

biological target: Tyrosine-protein kinase SYK (Homo sapiens, UniProt P43405)
One threshold, 3000 pM, splits the recorded IC50 values: lower ones are rule met, equal or higher ones are rule not met.

Asked: A record lists `Cn1ccc2c(-c3nc4c(-n5cc(CN6CC[C@@H](O)C6)cn5)ccnc4[nH]3)cccc21` . Is its IC50 below 3000 pM?
Given back: rule met

Asked: Can you check `CN(C)Cc1cc(-c2ccnc3[nH]c(-c4cccc5c4ccn5C)nc23)nn1C` next?
Given back: rule met

Asked: Can you check `CN(C)Cc1cnn(-c2ccnc3[nH]c(-c4cn(C)c5ccc(S(C)(=O)=O)cc45)nc23)c1` next?
Given back: rule met

Asked: Can you check `COc1ccc(-c2nc3c(NCC4CCNCC4)c(Cl)cnc3[nH]2)cc1` next?
Given back: rule not met

Asked: Can you check `Cc1nnc(-c2ncn3ccc(Nc4nccc(-c5cc(CN(C)C)n(C)n5)n4)cc23)o1` next?
Given back: rule met

Asked: Can you check `Cc1nn(-c2ccnc3[nH]c(-c4cccc5c4ccn5C)nc23)cc1CN(C)C` next?
Given back: rule met

Asked: Can you check `Cc1nn(-c2ccnc3[nH]c(-c4cccc5c4ccn5C)nc23)cc1CN1CC[C@H](O)C1` next?
Given back: rule not met
